System: MCF7
Test: Cytotoxicity against human MCF7 cells transfected with control SiRNA assessed as reduction in cell viability by MTT assay
Format: functional, cell-based
Endpoint: IC50 (nM)
Expressed in nM, but write only the number.

Please report the recorded IC50 for CN(C)c1ccc(-c2c3nc(c(-c4ccc(N(C)C)cc4)c4ccc([nH]4)c(-c4ccc(C(=O)O)cc4)c4nc(c(-c5ccc(C(=O)O)cc5)c5ccc2[nH]5)C=C4)C=C3)cc1 . 2240

====

Target: DNA topoisomerase 1 (Homo sapiens)
Sequence (P11387 whole entry): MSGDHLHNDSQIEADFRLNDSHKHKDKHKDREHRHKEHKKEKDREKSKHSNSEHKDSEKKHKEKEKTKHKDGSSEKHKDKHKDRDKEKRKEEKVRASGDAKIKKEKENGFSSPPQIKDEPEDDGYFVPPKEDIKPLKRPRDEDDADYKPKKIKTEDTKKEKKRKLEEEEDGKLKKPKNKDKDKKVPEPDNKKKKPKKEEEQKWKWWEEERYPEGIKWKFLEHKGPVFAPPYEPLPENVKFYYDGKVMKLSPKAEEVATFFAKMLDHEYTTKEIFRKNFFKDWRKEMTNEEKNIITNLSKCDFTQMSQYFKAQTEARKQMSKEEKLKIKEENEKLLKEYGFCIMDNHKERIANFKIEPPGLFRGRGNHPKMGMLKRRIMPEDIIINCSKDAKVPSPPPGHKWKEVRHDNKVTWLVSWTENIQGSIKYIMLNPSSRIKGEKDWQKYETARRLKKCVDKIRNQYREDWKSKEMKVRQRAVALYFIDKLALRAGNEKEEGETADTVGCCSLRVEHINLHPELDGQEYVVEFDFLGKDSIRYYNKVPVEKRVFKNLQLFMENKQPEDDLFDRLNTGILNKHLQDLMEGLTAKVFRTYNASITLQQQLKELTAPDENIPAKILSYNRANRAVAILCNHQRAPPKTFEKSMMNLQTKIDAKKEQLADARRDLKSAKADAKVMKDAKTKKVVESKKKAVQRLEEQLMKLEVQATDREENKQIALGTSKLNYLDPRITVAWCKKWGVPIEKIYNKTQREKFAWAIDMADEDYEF
Test: Inhibition of recombinant human topoisomerase-1 expressed in baculovirus infected sf9 cells using supercoiled pBS SK(+) DNA as substrate preincubated for 5 mins followed by substrate addition measured after 15 mins by ethidium bromide staining based agarose gel electrophoresis method
Endpoint: EC50 (µM)
Expressed in µM, but write only the number.

// lookup EC50 | system=DNA topoisomerase 1 (Homo sapiens) | key= Nc1ccc(-c2ccc(-c3c4nc(c(-c5ccc(-c6ccc(N)cc6)cc5)c5ccc([nH]5)c(-c5ccncc5)c5nc(c(-c6ccncc6)c6ccc3[nH]6)C=C5)C=C4)cc2)cc1 63.4

// lookup EC50 | system=DNA topoisomerase 1 (Homo sapiens) | key= O=C(O)c1ccc(-c2c3nc(c(-c4ccc(C(=O)O)cc4)c4ccc([nH]4)c(-c4ccc(C(=O)O)cc4)c4nc(c(-c5ccc(C(=O)O)cc5)c5ccc2[nH]5)C=C4)C=C3)cc1 0.563

// lookup EC50 | system=DNA topoisomerase 1 (Homo sapiens) | key= CN(C)c1ccc(-c2c3nc(c(-c4ccc(N(C)C)cc4)c4ccc([nH]4)c(-c4ccc(N(C)C)cc4)c4nc(c(-c5ccc(C(=O)O)cc5)c5ccc2[nH]5)C=C4)C=C3)cc1 1.23

// lookup EC50 | system=DNA topoisomerase 1 (Homo sapiens) | key= CN(C)c1ccc(-c2c3nc(c(-c4ccc(N(C)C)cc4)c4ccc([nH]4)c(-c4ccc(C(=O)O)cc4)c4nc(c(-c5ccc(C(=O)O)cc5)c5ccc2[nH]5)C=C4)C=C3)cc1 0.381

====

Tested on: MCF7
Experiment: Cytotoxicity against human MCF7 cells assessed as reduction in cell viability by MTT assay
Type: functional, cell-based
Endpoint: IC50 (nM)
Expressed in nM, but write only the number.

Please report the recorded IC50 for CN(C)c1ccc(-c2c3nc(c(-c4ccc(N(C)C)cc4)c4ccc([nH]4)c(-c4ccc(C(=O)O)cc4)c4nc(c(-c5ccc(C(=O)O)cc5)c5ccc2[nH]5)C=C4)C=C3)cc1 . 2170
